Listed below: PBM E-score values for each entry.
Target Or System: Msn1 (UniProt P22148)
Sequence: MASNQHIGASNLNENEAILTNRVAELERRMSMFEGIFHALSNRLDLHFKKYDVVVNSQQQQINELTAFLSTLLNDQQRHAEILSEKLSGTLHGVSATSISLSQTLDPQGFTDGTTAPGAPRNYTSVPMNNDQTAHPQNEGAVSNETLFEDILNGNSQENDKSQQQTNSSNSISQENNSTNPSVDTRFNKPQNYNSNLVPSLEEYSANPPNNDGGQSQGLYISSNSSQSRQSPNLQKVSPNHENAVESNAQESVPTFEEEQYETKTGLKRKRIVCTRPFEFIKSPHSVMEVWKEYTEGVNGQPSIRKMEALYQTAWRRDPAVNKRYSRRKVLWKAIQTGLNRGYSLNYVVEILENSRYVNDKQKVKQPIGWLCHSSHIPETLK
Measurement Notes: PBM E-score (8-mer binding enrichment) (E-score (-0.5 to 0.5)); higher = stronger / more preferred TF binding
Setup Conditions: protein concentration: 200 nM; construct: GST-full length
The full ranking holds about 33,000 sequences; the median of “E-score (-0.5 to 0.5)” is about -0.013, and the highest 2% start at about 0.3. Only a selection was taken, and the highest values are over-represented in it overall.
Assay Metric: PBM E-score

{"Sequence String": "CCAGCCCC", "Target Or System": "Msn1 (UniProt P22148)", "Assay Value": -0.304}
{"Sequence String": "AATTGTAT", "Target Or System": "Msn1 (UniProt P22148)", "Assay Value": 0.155}
{"Sequence String": "GATTGTCC", "Target Or System": "Msn1 (UniProt P22148)", "Assay Value": 0.458}
{"Sequence String": "CATGTCGC", "Target Or System": "Msn1 (UniProt P22148)", "Assay Value": 0.237}
{"Sequence String": "CTACTAGA", "Target Or System": "Msn1 (UniProt P22148)", "Assay Value": -0.0895}
{"Sequence String": "GCAGACAA", "Target Or System": "Msn1 (UniProt P22148)", "Assay Value": 0.341}
{"Sequence String": "CTTATCTA", "Target Or System": "Msn1 (UniProt P22148)", "Assay Value": 0.0318}
{"Sequence String": "GCGCTAGA", "Target Or System": "Msn1 (UniProt P22148)", "Assay Value": -0.116}
{"Sequence String": "AAGGTACA", "Target Or System": "Msn1 (UniProt P22148)", "Assay Value": 0.166}
{"Sequence String": "CATGGAGA", "Target Or System": "Msn1 (UniProt P22148)", "Assay Value": -0.00044}
{"Sequence String": "AATTGTCG", "Target Or System": "Msn1 (UniProt P22148)", "Assay Value": 0.362}
{"Sequence String": "AATGTCGT", "Target Or System": "Msn1 (UniProt P22148)", "Assay Value": 0.442}
{"Sequence String": "ACAGACAT", "Target Or System": "Msn1 (UniProt P22148)", "Assay Value": 0.399}
{"Sequence String": "GTCCTAAC", "Target Or System": "Msn1 (UniProt P22148)", "Assay Value": 0.36}
{"Sequence String": "ATCCTATG", "Target Or System": "Msn1 (UniProt P22148)", "Assay Value": -0.0491}
{"Sequence String": "AAGACAGG", "Target Or System": "Msn1 (UniProt P22148)", "Assay Value": 0.0873}
{"Sequence String": "ATAAAGCC", "Target Or System": "Msn1 (UniProt P22148)", "Assay Value": -0.151}
